- measured on: chicken GPR120 (cGPR120) (Gallus gallus)
- Sequence (A0A8V0ZCZ6 1-362): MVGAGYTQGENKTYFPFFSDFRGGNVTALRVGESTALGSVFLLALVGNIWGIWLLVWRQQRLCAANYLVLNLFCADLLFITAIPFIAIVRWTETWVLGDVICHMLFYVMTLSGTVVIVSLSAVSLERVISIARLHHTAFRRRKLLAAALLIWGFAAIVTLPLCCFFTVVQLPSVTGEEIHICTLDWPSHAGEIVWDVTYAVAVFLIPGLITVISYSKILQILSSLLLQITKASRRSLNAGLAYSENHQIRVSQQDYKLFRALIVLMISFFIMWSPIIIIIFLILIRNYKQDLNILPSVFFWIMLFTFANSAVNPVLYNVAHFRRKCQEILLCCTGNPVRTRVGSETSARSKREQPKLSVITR
- method description: Fura-2 Ca2+ imaging in transfected HEK293T cells, Hill fit
reported property: EC50 (µM)
Note: unit µM is implicit; provide only the numeric part.

Exam item: Which EC50 is listed for "CCCCC/C=C\C/C=C\C/C=C\C/C=C\CCCC(=O)O" ?
Marked response: 1040
